# measurement-notes: In vivo pharmacokinetics study in rats
# condition-parameters: male SD rats, oral 2 mg/kg, plasma
measured-endpoint: Cmax (µM)
Give bare numbers, in µM.

What value of measured Cmax is listed for CCC(=O)N[C@@H]1CCCc2c(-c3ccc4c(ccc(=O)n4C)c3)cncc21 (single isomer, unassigned) [Compound 001] ?
7.63

---

# measurement-notes: in vitro
# condition-parameters: cynomolgus monkey, plasma
measured-endpoint: fraction unbound at 4 h, 2 µM
Answers are plain numbers.

Some molecules with known fraction unbound at 4 h, 2 µM results, for comparison:
>  <molecule>
CCC(=O)NC1CCCc2c(-c3cc(F)c4c(ccc(=O)n4C)c3)cncc21 (single isomer, unassigned) [Compound 018]

>  <fraction unbound at 4 h, 2 µM>
0.205

$$$$
>  <molecule>
Cc1noc(C)c1C(=O)NC1CCCc2c(-c3cc4ccc(=O)n(C)c4cc3F)cncc21 (single isomer, unassigned) [Compound 020]

>  <fraction unbound at 4 h, 2 µM>
0.097

$$$$

Here's the next entry for you.
What value of measured fraction unbound at 4 h, 2 µM is listed for CCC(=O)NC1CCCc2c(-c3cc4ccc(=O)n(C)c4cc3F)cncc21 (single isomer, unassigned) [Compound 019] ?
0.248

---

# measurement-notes: in vivo
# condition-parameters: cynomolgus monkey, po, 3 mg/kg
measured-endpoint: AUC(0-t) at 24 h
Show the value, then the unit it is measured in.

What value of measured AUC(0-t) at 24 h is listed for CCC(=O)NC1CCCc2c(-c3cc4ccc(=O)n(C)c4cc3F)cncc21 (single isomer, unassigned) ?
23.9 µM·h

---

Give half-life for every item shown.
# measurement-notes: in vivo
# condition-parameters: rat, po, 2 mg/kg
One number for each entry, in h.

Could you tell me half-life for each of these compounds? They are listed below.
1. CCC(=O)NC1CCCc2c(-c3cc4c(s3)N(C)C(=O)CC4)cncc21 (single isomer, unassigned)
2. CCC(=O)NC1CCCc2c(-c3cc4ccc(=O)n(C)c4s3)cncc21 (single isomer, unassigned)

1. 1.34
2. 3.6

---

# measurement-notes: in vivo
# condition-parameters: rat, po, 2 mg/kg
measured-endpoint: Cmax (µM)
One number for each entry, in µM.

>  <compound>
CCC(=O)NC1CCCc2c(-c3cc4ccc(=O)n(C)c4s3)cncc21 (single isomer, unassigned)

>  <measured-endpoint>
Cmax

>  <value-reported>
6.92

$$$$

What value of measured Cmax is listed for CCC(=O)NC1CCCc2c(-c3cc4c(s3)N(C)C(=O)CC4)cncc21 (single isomer, unassigned) ?
4.17

---

# measurement-notes: in vivo
# condition-parameters: cynomolgus monkey, po, 3 mg/kg
measured-endpoint: bioavailability (%)
Numbers only, in %.

What value of measured bioavailability is listed for CCC(=O)NC1CCCc2c(-c3cc4ccc(=O)n(C)c4cc3F)cncc21 (single isomer, unassigned) ?
113

---

# target-entity: CYP2C19 (Homo sapiens)
# Construct: Mixed human liver microsomes (HLM) were purchased from Corning Inc; tissue Corning Inc; host or cells: pooled (mixed) human liver microsomes
# measurement-notes: Human liver microsome CYP inhibition assay, CYP2C19
# Assay type: in vitro ADME
pIC50: −log10 of the molar value.
measured-endpoint: pIC50

>  <compound>
CCC(=O)NC1CCCc2c(-c3cc4ccc(=O)n(C)c4s3)cncc21 (single isomer, unassigned) [Compound 023]

>  <target-entity>
CYP2C19 (Homo sapiens)

>  <value-reported>
< 4.30

$$$$

Here's the next entry for you.
What value of measured pIC50 is listed for CCC(=O)NC1CCCc2c(-c3cc4c(s3)N(C)C(=O)CC4)cncc21 (single isomer, unassigned) [Compound 017] ?
< 4.30

---

# target-entity: CYP2C19 (Homo sapiens, UniProt P33261)
# Construct: Mixed human liver microsomes (HLM) were purchased from Corning Inc; tissue Corning Inc; host or cells: pooled (mixed) human liver microsomes
# Sequence (P33261 whole entry): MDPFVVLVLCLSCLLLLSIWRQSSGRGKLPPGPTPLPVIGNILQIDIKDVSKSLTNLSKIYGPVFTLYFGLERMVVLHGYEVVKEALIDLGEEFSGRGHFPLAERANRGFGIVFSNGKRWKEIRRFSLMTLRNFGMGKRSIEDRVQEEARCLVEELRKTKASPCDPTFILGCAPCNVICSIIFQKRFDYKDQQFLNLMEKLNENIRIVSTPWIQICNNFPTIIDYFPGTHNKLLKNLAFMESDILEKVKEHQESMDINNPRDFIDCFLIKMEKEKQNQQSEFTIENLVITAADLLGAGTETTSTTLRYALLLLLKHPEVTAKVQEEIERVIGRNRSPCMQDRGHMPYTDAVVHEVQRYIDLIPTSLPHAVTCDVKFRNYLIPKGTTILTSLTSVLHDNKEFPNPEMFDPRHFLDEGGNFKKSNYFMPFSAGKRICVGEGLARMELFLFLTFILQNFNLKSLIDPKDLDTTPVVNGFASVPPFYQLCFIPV
# measurement-notes: Human liver microsome CYP inhibition assay, CYP2C19
# Format: in vitro ADME
# condition-parameters: mixed human liver microsomes, 5-in-1 probe substrate; read-out: Cytochrome P450 isoenzyme half maximal inhibitory concentration IC50 (µM) CYP2C19
# Experimental: Experimental objective: To evaluate the inhibitory activity of the test substance on human liver microsomal cytochrome P450 isoenzymes (CYP1A2, CYP2C9, CYP2C19, CYP2D6, CYP3A4) using a 5-in-1 probe substrate for CYP isoenzymes. Mixed human liver microsomes (HLM) were purchased from Corning Inc. (Steuben, New York, USA) and stored at temperatures below -70°C prior to use. […]
measured-endpoint: IC50

What value of measured IC50 is listed for CCC(=O)N[C@@H]1CCCc2c(-c3ccc4c(ccc(=O)n4C)c3)cncc21 (single isomer, unassigned) ?
> 50 µM

---

# measurement-notes: in vivo
# condition-parameters: cynomolgus monkey, po, 3 mg/kg
measured-endpoint: half-life (h)
One number for each entry, in h.

What value of measured half-life is listed for CCC(=O)NC1CCCc2c(-c3cc4ccc(=O)n(C)c4cc3F)cncc21 (single isomer, unassigned) [Compound 019] ?
4.65

---

# target-entity: CYP3A4 (Homo sapiens)
# Construct: Mixed human liver microsomes (HLM) were purchased from Corning Inc; tissue Corning Inc; host or cells: pooled (mixed) human liver microsomes
# Sequence (P08684 whole entry): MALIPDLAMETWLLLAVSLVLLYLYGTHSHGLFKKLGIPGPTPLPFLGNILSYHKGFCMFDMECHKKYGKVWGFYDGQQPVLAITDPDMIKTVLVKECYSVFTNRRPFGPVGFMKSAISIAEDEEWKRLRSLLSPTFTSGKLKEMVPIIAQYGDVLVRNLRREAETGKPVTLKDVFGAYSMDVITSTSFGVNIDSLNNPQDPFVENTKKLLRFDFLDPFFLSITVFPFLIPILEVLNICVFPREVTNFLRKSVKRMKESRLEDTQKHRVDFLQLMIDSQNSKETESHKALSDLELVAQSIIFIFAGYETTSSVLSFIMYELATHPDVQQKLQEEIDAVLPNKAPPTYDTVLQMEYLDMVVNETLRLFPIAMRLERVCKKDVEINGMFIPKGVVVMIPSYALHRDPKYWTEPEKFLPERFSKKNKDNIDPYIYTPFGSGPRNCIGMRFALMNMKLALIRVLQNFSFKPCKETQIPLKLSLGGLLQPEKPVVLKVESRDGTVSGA
# measurement-notes: Human liver microsome CYP inhibition assay, CYP3A4
# Type: in vitro ADME
# condition-parameters: mixed human liver microsomes, 5-in-1 probe substrate; read-out: Cytochrome P450 isoenzyme half maximal inhibitory concentration IC50 (µM) CYP3A4
measured-endpoint: IC50

# returns recorded IC50 (system: CYP3A4 (Homo sapiens)) for CCC(=O)N[C@@H]1CCCc2c(-c3ccc4c(ccc(=O)n4C)c3)cncc21 (single isomer, unassigned)
> 50 µM

---

# measurement-notes: in vivo
# condition-parameters: cynomolgus monkey, po, 1 mg/kg
Give AUC(0-t) at 24 h for every item shown.
Show the value, then the unit it is measured in.

>  <compound>
CCC(=O)NC1CCCc2c(-c3cc4c(s3)N(C)C(=O)CC4)cncc21 (single isomer, unassigned)

>  <AUC(0-t) at 24 h>
7.29 µM·h

$$$$
>  <compound>
CCC(=O)NC1CCCc2c(-c3cc4ccc(=O)n(C)c4s3)cncc21 (single isomer, unassigned)

>  <AUC(0-t) at 24 h>
8.92 µM·h

$$$$

Here's the next entry for you.
What value of measured AUC(0-t) at 24 h is listed for CCC(=O)NC1CCCc2c(-c3cc(F)c4c(ccc(=O)n4C)c3)cncc21 (single isomer, unassigned) ?
7.59 µM·h

---

# target-entity: human CYP11B1 (Homo sapiens)
# Construct: expressed in transfected cells; host or cells: human renal leiomyoma G402 cells (monoclonal)
# Sequence (P15538 25-503): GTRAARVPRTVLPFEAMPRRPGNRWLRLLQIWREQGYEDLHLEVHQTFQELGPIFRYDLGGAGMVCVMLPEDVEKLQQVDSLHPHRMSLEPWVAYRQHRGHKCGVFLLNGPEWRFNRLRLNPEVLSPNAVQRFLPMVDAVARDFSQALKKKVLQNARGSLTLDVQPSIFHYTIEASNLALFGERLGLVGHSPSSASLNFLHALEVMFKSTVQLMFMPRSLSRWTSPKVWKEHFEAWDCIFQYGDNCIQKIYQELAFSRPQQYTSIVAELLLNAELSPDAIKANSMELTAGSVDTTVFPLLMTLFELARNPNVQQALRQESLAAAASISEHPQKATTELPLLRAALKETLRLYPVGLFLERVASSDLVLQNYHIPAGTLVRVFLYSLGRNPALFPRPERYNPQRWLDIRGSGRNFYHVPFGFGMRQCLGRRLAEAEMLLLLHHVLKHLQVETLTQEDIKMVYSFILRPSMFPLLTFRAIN
# measurement-notes: In vitro activity assay of monoclonal cells overexpressing human CYP11B1
# Format: cell-based
# condition-parameters: G402 cells overexpressing human CYP11B1; 1 µM 11-deoxycortisol, 16 hours; cortisol by LC-MS/MS
Give IC50 for every item shown.
Give bare numbers, in µM.

>  <molecule>
CCC(=O)NC1CCCc2c(-c3cc4c(cc3F)N(C)C(=O)CO4)cncc21 (single isomer, unassigned) [Compound 032]

>  <measured-endpoint>
IC50

>  <unit-symbol>
µM

>  <value-reported>
5.65

$$$$
>  <molecule>
CCC(=O)NC1CCCc2c(-c3ccc4c(c3)OCC(=O)N4C)cncc21 (single isomer, unassigned) [Compound 011]

>  <measured-endpoint>
IC50

>  <unit-symbol>
µM

>  <value-reported>
6.91

$$$$
>  <molecule>
CCC(=O)NC1CCCc2c(-c3cc4c(s3)N(C)C(=O)CC4)cncc21 (single isomer, unassigned) [Compound 017]

>  <measured-endpoint>
IC50

>  <unit-symbol>
µM

>  <value-reported>
0.322

$$$$

Here's the next entry for you.
# returns recorded IC50 (system: human CYP11B1 (Homo sapiens)) for CCC(=O)NC1CCCc2c(-c3cc(F)c4c(ccc(=O)n4C)c3)cncc21 (single isomer, unassigned) [Compound 018]
3.81
